Target: Proteasome subunit beta (Trypanosoma cruzi) (UniProt O96673)
Sequence (whole entry): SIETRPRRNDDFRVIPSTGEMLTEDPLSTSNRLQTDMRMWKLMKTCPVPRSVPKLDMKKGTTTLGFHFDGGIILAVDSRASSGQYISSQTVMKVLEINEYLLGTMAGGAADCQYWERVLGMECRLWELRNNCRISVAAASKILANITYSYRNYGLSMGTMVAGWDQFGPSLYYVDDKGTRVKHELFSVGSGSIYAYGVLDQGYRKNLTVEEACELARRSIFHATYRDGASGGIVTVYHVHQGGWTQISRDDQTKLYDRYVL
Assay: Trypanosoma cruzi proteasome chymotrypsin-like activity (TcProtChymo) assay.
Type: functional
Parameters: scale not given: in the data most compounds retested in dose-response had high values
Conditions: 9.37 µM
Would you kindly list Percent Effect for each of these compounds?

Reference set, count: 5
>>> df
                                   compound  result
0  COC[C@@H]1CC[C@H]2[C@H](CCN2S(=O)(=O)c2ccc(F)cc2)O1   12.1%
1  COc1cccc(-c2noc(C3CCN(Cc4cn(C)nc4C)C3)n2)c1 (stereo unspecified)   14.1%
2    COc1ccccc1OCC(=O)NS(=O)(=O)c1ccc(Br)s1   6.14%
3  COCCN1CCC(CNC(=O)c2cc(C)cc(C)c2)C1 (stereo unspecified)   8.88%
4  COCCNC(=O)[C@H]1C[C@@H]2CCN(Cc3ccoc3)C[C@H]2O1   23.2%

Return reported Percent Effect values for all items listed beneath this line.
1. Cc1nnc(NC(=O)CN2CCCC(Cn3cncn3)C2)s1 (stereo unspecified)
2. COc1cccc(COCC(=O)N2CCN(CC(C)(C)O)CC2)c1
3. O=C(NCC1CC1)C1CSCN1S(=O)(=O)c1cccc(F)c1 (stereo unspecified)

1. 12.3%
2. -0.167%
3. 25%

Give Percent Effect for each listed item.
1. Cc1cccc(-c2ccc3nc(C4CCN(CC5CC5)CC4)nn3c2)c1
2. c1ccc(Cn2cc3c(n2)C(CNCc2ccco2)OCC3)nc1 (stereo unspecified)
3. CN1C(=O)C(C)(C)COc2cc(NS(=O)(=O)Cc3ccccc3)ccc21

1. 10.2%
2. 2.79%
3. 15.6%
